Data origin: ChEMBL document CHEMBL1122346

assay: Half-life measured in 1:1 ratio of MeOH and phosphate buffer at pH 7; format: ADME; conditions: 1:1 MeOH / phosphate buffer
measuredProperty: half-life

INSERT INTO results (compoundsmiles, result) VALUES
  ('CC(=O)Nc1nc2nc(C)ncc2cc1-c1c(Cl)cccc1Cl', '60 h'),
  ('Cc1ncc2cc(-c3c(Cl)cccc3Cl)c(NC(=O)c3cccnc3)nc2n1', '54 h');

* * *

The entries below come with measured half-life values attached.
assay: Half-life measured in 1:1 ratio of MeOH and 0.1 N NaOH; assay type: ADME; details: 1:1 MeOH / 0.1 N NaOH
measuredProperty: half-life (h)

INSERT INTO results (compoundsmiles, measuredproperty, valuequalifier, quantitativereadout) VALUES
  ('CC(=O)N(C)c1nc2nc(C)ncc2cc1-c1c(Cl)cccc1Cl', 'half-life', '=', 1.6),
  ('Cc1ncc2cc(-c3c(Cl)cccc3Cl)c(NC(=O)c3ccco3)nc2n1', 'half-life', '=', 4),
  ('COC(=O)Nc1nc2nc(C)ncc2cc1-c1c(Cl)cccc1Cl', 'half-life', '=', 6),
  ('CC(=O)/N=c1/c(-c2c(Cl)cccc2Cl)cc2cnc(C)nc2n1C', 'half-life', '=', 8.8),
  ('CC(=O)Nc1nc2nc(C)ncc2cc1-c1c(Cl)cccc1Cl', 'half-life', '<', 0.0833),
  ('Cc1ncc2cc(-c3c(Cl)cccc3Cl)c(NC(=O)c3cccnc3)nc2n1', 'half-life', '=', 4);

* * *

test: pKa value, measured in 67% of DMF; assay type: physicochemical; details: 67% DMF
The entries below come with measured pKa values attached.
measuredProperty: pKa

INSERT INTO measurements (compoundsmiles, quantitativereadout) VALUES
  ('Cc1ncc2cc(-c3c(Cl)cccc3Cl)c(NC(=O)c3cccnc3)nc2n1', 4.1),
  ('CC(=O)/N=c1/c(-c2c(Cl)cccc2Cl)cc2cnc(C)nc2n1C', 2.5),
  ('Cc1ncc2cc(-c3c(Cl)cccc3Cl)c(NC(=O)c3ccco3)nc2n1', 4.3),
  ('CC(=O)N(C)c1nc2nc(C)ncc2cc1-c1c(Cl)cccc1Cl', 4.2),
  ('COC(=O)Nc1nc2nc(C)ncc2cc1-c1c(Cl)cccc1Cl', 4.2),
  ('CC(=O)Nc1nc2nc(C)ncc2cc1-c1c(Cl)cccc1Cl', 4.1);

* * *

The entries below come with measured Activity rating values attached.
system: Rattus norvegicus; test: Antihypertensive activity rating in conscious SHR after 18 hr post dose at 50 mg/kg (po); assay type: functional
measuredProperty: Activity rating

INSERT INTO results (compoundsmiles, result) VALUES
  ('CC(=O)Nc1ncc2cc(-c3c(Cl)cccc3Cl)c(NC(C)=O)nc2n1', '>30%'),
  ('CCC(=O)Nc1nc2nc(C)ncc2cc1-c1c(Cl)cccc1Cl', '>30%'),
  ('CC(=O)Nc1nc2nc(C)ncc2cc1-c1c(Cl)cccc1Cl', '>30%'),
  ('Cc1ncc2cc(-c3c(Cl)cccc3Cl)c(NC=O)nc2n1', '>30%');

* * *

The entries below come with measured pKa values attached.
assay: pKa value, measured in 67% DMF/water
measuredProperty: pKa

INSERT INTO measurements (compoundsmiles, quantitativereadout) VALUES
  ('Cc1ncc2cc(-c3c(Cl)cccc3Cl)c(NC(=O)c3ccco3)nc2n1', 10.7),
  ('CC(=O)Nc1nc2nc(C)ncc2cc1-c1c(Cl)cccc1Cl', 12.8),
  ('Cc1ncc2cc(-c3c(Cl)cccc3Cl)c(NC(=O)c3cccnc3)nc2n1', 9.8),
  ('COC(=O)Nc1nc2nc(C)ncc2cc1-c1c(Cl)cccc1Cl', 11.3);
